Tested on: P388 leukemia ip, CD2F1 mice, survival T/C
PROTOCOL NOTES: NCI In Vivo Anticancer Drug Screen. Data for tumor model P388 Leukemia (intraperitoneal) in CD2F1 (CDF1) mice
CONDITIONS: endpoint: median survival time; dose: 240.0 mg/kg/injection; schedule: Q01DX005 (ip); vehicle: Klucel (hydroxypropylcellulose) (HPC); higher = longer survival
Inconclusive results and toxic doses are left out.
ASSAY METRIC: T/C

// Input: COc1ccc(C(=O)N2N=C(C)C(C)(C)C2(C)O)cc1 (stereo not given) . Output its T/C only.
104 % of control

// Input: CCCC(CC(=O)O)c1c2c(c(O)c3c1OC(C)C(C)C3=O)C=CC(C)(C)O2 (stereo not given) . Output its T/C only.
93 % of control

// Input: N#CC1=C(Nc2ccccc2Cl)SC(c2ccncc2)NC1=O (stereo not given) . Output its T/C only.
105 % of control

// Input: CS(=O)(=O)c1ccc(C[N+]23CN4CN(CN(C4)C2)C3)cc1 . Output its T/C only.
98 % of control

// Input: COCN1C(=O)N2C(c3ccccc3)(c3ccccc3)C(C(=O)OC)=C(C(=O)OC)P12(c1ccccc1)c1ccccc1 . Output its T/C only.
87 % of control

// Input: Cc1ccc(C2OC(N)=C(O)C2=O)cc1 (stereo not given) . Output its T/C only.
93 % of control

// Input: CCC(=O)N=c1sc(SCc2ccccc2)nn1C(=O)SC (tested in a mixture with another compound) . Output its T/C only.
90 % of control

// Input: CC(=O)Nc1ccc(Nc2nc(Cl)nc(Nc3ccc(NC(C)=O)cc3)n2)cc1 . Output its T/C only.
89 % of control

// Input: O=c1c(Cc2ccccc2)c([O-])[n+](Cc2ccccc2)c(-c2ccccc2)n1-c1ccccc1 . Output its T/C only.
90 % of control

// Input: Oc1ccccc1C=NCCSSCCN=Cc1ccccc1O . Output its T/C only.
108 % of control

// Input: O=C/C(=C\O)NC(=O)c1ccccc1C(=O)O . Output its T/C only.
92 % of control

// Input: Cc1nc(N)[nH]c(=O)c1CCCN=Cc1ccccc1 . Output its T/C only.
96 % of control

// Input: O=C1OCC/C1=C\NCCCCCCCCN/C=C1\CCOC1=O . Output its T/C only.
105 % of control

// Input: COC(=O)c1nc(=S)[nH]c(C(=O)OC)c1C(=O)c1ccc(Cl)c(Cl)c1 . Output its T/C only.
95 % of control

// Input: CC1(N2CCCCC2)C(=O)NC(=O)N(C2CCCCC2)C1=O (stereo not given) . Output its T/C only.
89 % of control

// Input: CS/C(=C\c1ccc(C(=O)c2ccc(C)cc2)n1C)S(C)=O (stereo not given) . Output its T/C only.
88 % of control

// Input: CCCCN1C(=O)[C@@H]2[C@H](c3ccccc3O)C(c3ccccc3O)[C@@H]2C1=O (stereo not given in full) . Output its T/C only.
100 % of control

// Input: O=C(O)CSCC(=O)Nc1cc(C(F)(F)F)cc(C(F)(F)F)c1 . Output its T/C only.
113 % of control

// Input: O=C(O)/C=C(/CC(=O)O)c1ccc(O)cc1 . Output its T/C only.
100 % of control

// Input: COc1ccc(C2c3cc4c(cc3OC(C)(O)C2C)OCO4)c(OC)c1 (stereo not given) . Output its T/C only.
100 % of control
